From: the DeepSol protein solubility set

# assay.notes: soluble on expression in E. coli; label from the status in PepcDB or PDB records
property.name: soluble on expression in E. coli

1) MTAFQSLKPSTLSREDFVKAFADIYEHSPWVAEKAYELGLDASVDQIETLHQRMSDILLSADHASQLALINAHPDLAGKAAVQGQLTEASTNEQAGAGIHQCTAEEFQRFTELNDAYKAKFKFPFIMAVKGSNRHQILAAFETRIHNSVDTEFKCALAEINKIALFRLLTLLEHHHHHH not soluble
2) YPPSMDWRKKGNFVSPVKNQGSCGSCWTFSTTGALESAVAIATGKMLSLAEQQLVDCAQNFNNHGCQGGLPSQAFEYIRYNKGIMGEDTYPYKGQDDHCKFQPDKAIAFVKDVANITMNDEEAMVEAVALYNPVSFAFEVTNDFLMYRKGIYSSTSCHKTPDKVNHAVLAVGYGEENGIPYWIVKNSWGPQWGMNGYFLIERGKNMCGLAACASYPIPLV soluble
3) MGSDKIHHHHHHMSFTSLPLTEINHKLPARNIIESQWITLQLTLFAQEQQAKRVSHAIVSSAYRKAEKIIRDAYRYQREQKVEQQQELACLRKNTLEKMEVEWLEQHVKHLQDDENQFRSLVDHAAHHIKNSIEQVLLAWFDQQSVDSVMCHRLARQATAMAEEGALYLRIHPEKEALMRETFGKRFTLIIEPGFSPDQAELSSTRYAVEFSLSRHFNALLKWLRNGEDKRGSDEY not soluble
4) MLNLSSNQAAAVTVSETAELPEALEQLGLSNSRPVLVIVGGASQTSEADFLRIQSLFVEVLAPIAQSLGAYVVDGGTDAGVMRLMGDARSQINGQFPLIGVAPTAKVILPNQTTILADDATPLEPHHSHFVLIPGSKWGDESPWIVKVATLLANGLPSITVLINGGEISFLEHHHHHH soluble
5) MLITEIFHSIQGEGPYAGLPMLFVRTNVCNIRCEWCDTKYSFYGGKEIPLSELLGIVKEAKEGWVCFTGGEPLVQRDALAFVKSVVDMGKNVLIETNGTISIRNFVFSDRIFIDMDVKPPSAKVTKGFLMDNLRYLRKQDYLKIVIKDDTDLDFAIDFVDRYGEGLSFVFQPAWGSDIRRIADRIVGTGYNVRVLPQIHKIIYGDVPGV not soluble

Below are 6 sequences. Give each one its soluble on expression in E. coli.
1. METNLFKLSLDDVETPKGSMLDLKISQSKIALPKNTVGGTILRSDLLANFLTEGNFRASVDLQRTHRIKGMIKMVATVGIPENTGIALACAMNSSIRGRASSDIYTICSQDCELWNPACTKAMTMSFNPNPCSDAWSLEFLKRTGFHCDIICVTGWTATPMQDVQVTIDWFISSQECVPRTYCVLNPQNPFVLNRWMGKLTFPQGTSRSVKRMPLSIGGGAGAKSAILMNMPNAVLSMWRYFVGDLVFEVSKMTSPYIKCTVSFFIAFGNLADDTINFEAFPHKLVQFGEIQEKVVLKFSQEEFLTAWSTQVRPATTLLADGCPYLYAMVHDSSVSTIPGDFVIGVKLTIIENMCAYGLNPGISGSRLLGTIPQ
2. GPGSMANDYLFTSESVSEGHPDKVADQISDAILDAILAQDKYSRVAAETLCNTGLVVLAGEITTTANIDYIQIARDTIKRIGYDNTDYGIDYRGCAVLVAYDKQSPDIAQGVDRAHDNNLDQGAGDQGLMFGYACDETPELMPLPIHLSHRLVERQANLRRDGRLPWLRPDAKSQVTVRYVDGKPHSIDTVVLSTQHAPEIDLPALREAVIEEVIKPTLPADLIKGDIKFLVNPTGRFVIGGPQGDCGLTGRKIIVDTYGGAAPHGGGAFSGKDPSKVDRSAAYAGRYVAKNIVAAGLASRALIQVSYAIGVAEPTSVMVNTFGTGRVSDETITKLVREHFDLRPKGIIQMLDLLRPIYEKTAAYGHFGREEPEFSWEAADKALALAEAAGVEPAVQVA
3. MINKIFALPVIEQLTPVLSRRQLDDLDLIVVDHPQVKASFALQGAHLLSWKPVGEEEVLWLSNNTPFKTGVALRGGVPICWPWFGPAAQQGLPSHGFARNLPWALKAHNEDDNGVMLTFELQSSEATRKYWPHDFTLLARFKVGKTCEIELEAHGEFATTSALHSYFNVGDIANVKVSGLGDRFIDKVNDAKEGVLTDGIQTFPDRTDRVYLNPEACSVIHDATLNRTIDVVHHHHLNVVGWNPGPALSVSMGDMPDDGYKTFVCVETVYATAPQQATEEKPSRLAQTICVAKR
4. MLIYISLIMKMERLSMVILELYQNDYSKDLVAFDSIEDGKAFVAQIPGYTLETEDGFEVEYFNPKNIPDYMEIIFNGNIVPLSKFMFDPEENVNIIWKEISNLSLKNDRVIEGYSKIDAYVVNNHEVKAYVETRETNYRKAKDFLESRGYEIDRSFFGSEDGEAILYRKKGIEVWHFLCHLDPMFVEIEDVEGYVKEEVGEIQ
5. GHMQEKPPKELVNEWSLKIRKEMRVVDRQIRDIQREEEKVKRSVKDAAKKGQKDVCIVLAKEMIRSRKAVSKLYASKAHMNSVLMGMKNQLAVLRVAGSLQKSTEVMKAMQSLVKIPEIQATMRELSKEMMKAGIIEEMLEDTFESMDDQEEMEEEAEMEIDRILFEITAGALGKAPSKVTDALPEPEPPGAMAASEDEEEEEEALEAMQSRLATLRS
6. METKQKERIRRLMELLKKTDRIHLKDAARMLEVSVMTIRRDLSQDDDPLPLTLLGGYIVMVNKPASSTNMPLPAKKTHHRDDLPVAILAAGLVRENDLVFFDNGPEMPLVISMIPDDITFTGICYSHRVFIALNEKPNATAILCGGTYRAKSDAFYDANNPSALDSLNPRKVFISASGVHEHFGVSWFNPDDLAAKRKAMERGLRKILLARHALFDEVAPASIGPLSAFDVLISDRPLPTDYAVHCRNGSVKVITPDSESE

# output
["soluble", "soluble", "not soluble", "not soluble", "soluble", "not soluble"]

---

# assay.notes: soluble on expression in E. coli; label from the status in PepcDB or PDB records
property.name: soluble on expression in E. coli

1. MNTKYNKEFLLYLAGFVDGDGSIIAQIEPNQSYKFKHRLKLTFKVTQKTQRRWFLDKLVDEIGVGYVSDSGSVSNYILSEIKPLHNFLTQLQPFLKLKQKQANLVLKIIEQLPSAKESPDKFLEVCTWVDQIAALNDSKTRKTTSETVRAVLD soluble
2. MGSDKIHHHHHHMAFRGWKKLPIRIETGEMVEAIAPVIVSASRATDIPAFHAEWFMTRLRAGYVQWCNPFNARQTQYVSFRKTRAVIFWSKNPAPLLPHLSELDAIGINYSFQFTLNDYEAEGLEPYVLPLAKRIETFRRLASHIGPERVVWRFDPLVLTGRLTADMLLERIGRLAEALGGQTRKLVISFADIECYRAVRLRLSRMGAGAREFAPEEMDEFAARLVERNKDWGLELSACAEDSELAGIAKSRCIDGHVLASCFGDDAELMEFLGGSTLFPGDAPVSVALKHQGQRKACGCIVSKDIGVYGTCQHGCRYCYACR not soluble
3. MGSDKIHHHHHHMFKTAVGHSNDPDSLSAIEEVLQQCVSSLGGDIPKAGILFSAIDFEHALILQQIHQFFPGIELIGGTTDGEISSVLEFQQDSITLMLFCSDEVEINAGVGRKVSVDPIAVTKQAVEQAKAKTTETPRLCLTHPESLTISGVSILHGLKLALGQNVPIFGGLAGDQSRYQNTYQFFQTEVLSDSVPILLFSGTILFSHGVASGWHPIGQISQVTKVDKNILYEIDGKPALDFYHHYLGLLPPSMEYPLAVFDQNRDNFYIRAPIAYNQDSGSITFFADIPDRAVIQIAEACYEDILAASKASFMNALNNYPGAEPSAVLFFSCVARRQILGTRAKEEYQNTKLCLTYHLPGCGFYSYGEIAPIDGMSQTQFHNETFVTLILGTR not soluble
4. MEADGLGCAVCVLTGASRGFGRALAPQLARLLSPGSVMLVSARSESMLRQLKEELGAQQPDLKVVLAAADLGTEAGVQRLLSAVRELPRPEGLQRLLLINNAATLGDVSKGFLNVNDLAEVNNYWALNLTSMLCLTSGTLNAFQDSPGLSKTVVNISSLCALQPYKGWGLYCAGKAARDMLYQVLAAEEPSVRVLSYAPGPLDNDMQQLARETSKDPELRSKLQKLKSDGALVDCGTSAQKLLGLLQKDTFQSGAHVDFYD soluble
5. MSLILCCGEALIDMLPRQTTLGEAGFAPYAGGAVFNTAIALGRLGVPSAFFTGLSDDMMGDILRETLRASKVDFSYCATLSRPTTIAFVKLVDGHATYAFYDENTAGRMITEAELPALGADCEALHFGAISLIPEPCGSTYEALMTREHETRVISLDPNIRPGFIQNKQSHMARIRRMAAMSDIVKFSDEDLAWFGLEGDEDTLARHWLHHGAKLVVVTRGAKGAVGYSANLKVEVASERVEVVDTVGAGDTFDAGILASLKMQGLLTKAQVASLSEEQIRKALALGAKAAAVTVSRAGANPPFAHEIGLEGHHHHHH soluble

Below are 5 sequences. Give each one its soluble on expression in E. coli.
1. MSQKTDAPLESYEVNGATIAVLPEEIDGKICSKIIEKDCVFYVNMKPLQIVDRSCRFFGSSYAGRKAGTYEVTKISHKPPIMVDPSNQIFLFPTLSSTRPQCGWISHVHVKEFKATEFDDTEVTFSNGKTMELPISYNSFENQVYRTAWLRTKFQDRIDHRVPKRQEFMLYPKEERTKMIYDFILRELGERYLEHHHHHH
2. MSLIRVAIADDHQTLIDGISLRFDGNESIDLVFSANDGKDFLKQLKITPVDLVITDLKMPKMDGVTLAREIKRDFKNVKVIVLSMFDQPDVINKMVDVDVDGYILKTSSLDELVTAIGEVNKGKKYFDKHLHGITSLFDVNSTSSKTSLSNAEKDILNLIAEGKTSQEIANERACAVSTIHTHRRNMAHKLELYGKGELLRYAMDKKYNFEEGHHHHHH
3. SGRHERDAFDTLFDHAPDKLNVVKKTLITFVNKHLNKLNLEVTELETQFADGVYLVLLMGLLEGYFVPLHSFFLTPDSFEQKVLNVSFAFELMQDGGLEKPKPRPEDIVNCDLKSTLRVLYNLFTKYRNVE
4. MGSDKIHHHHHHVNFRDLGGYPVGDGRRTRWGRLFRSDSLGALTEEDLALVAALDLYRVVDFRLPHERELHPNRLPVGAGPKVTEIGFWPDGVPEMLKALRELRIDAAGIERAVTGHYRRYAVHHRAEYRRMLEAVEEAAGRPTLIHCVSGKDRTGFGAAVILMALGVPRTVIVEDYLLTNDCRRDIGHLMPSGTTESVAEAFTAARPAYIEAAFESIDTAFGGIDDYLAHGLGFGEQRLQRLRECLTEPATGSASLLSPRRAGNP
5. MSLEMKTYIIEKLRETEAIYYIEILLAVESGSRAWGFASPDSDYDIRFIYRHSKDWYLTPWDKDETITFMTEDDLDGSGWDLNKTFHLLLKSNAALLSWFYSPIVYIENKSFTKLFKPLVDQCFSPIAVSFHYLSMSKKYLESCRNDEVKLKSYFYCLRTALSGKWITEKKTVPPVLFSDLLVLADSTIRTKIENLIALKATKGESYFHPNDWELFEFMERQISENEEKAKSLSGSKTDKAQMEKVFREIISEGHHHHHH

# output
["not soluble", "soluble", "soluble", "not soluble", "not soluble"]

# input Fill blank: measured soluble on expression in E. coli of the sequence MGSDKIHHHHHHMDVTMGYFTIPKGPGDSTDARWYNAPGGRSIFLRPDNKGTTRAVLTLQAPIREAPESAQEQKRWLKERFADAGWEAPRVLDGLEDATDLYFDLLRQVRMKRWHKGRIALTGDAAWCATPLSGIGTTLAIVGAYVLAGELSKTHDIAQAFKCYENIMRPFVEKGQNVPKFGPRLMHPHSRLGVSFQRSALRFVSKPGIQKVLTKVAMPAADKVDLPDYQYHASS is ____.
# output not soluble
